Source: the supplement of paper PMC12764529

# folding stability dG unfold per record follows
# Test Method Notes: folding stability dG unfold from chymotrypsin proteolysis; higher = more stable
Just the number in kcal/mol, nothing appended.

{"columns": ["Sequence", "Unit Tag", "folding stability dG unfold"],
 "data": [
  ["SEFELKIEEEEDPATGVLRVTVTFNTSLEDAKEKLKELLKESGLNAVIKSVEEKKVGPEVTITFEIEIPPSA [r9_164_JUSTAS]", "kcal/mol", 3.27],
  ["SAGKISSIDISPFKLPDGSYPYLLRVSFPDLGTEVDFIFPAKPSDAINFAKELRKSLPNIPLTFSNISSAGG [r19_317_TrMRF]", "kcal/mol", 1.89],
  ["SAGGSAGGSGMMTVELTETIVSETSVVTEKVPEKGEFIVEVLETSVSVVRRTLPLALYQALLESAGGSAGGS [r12_723_JUSTAS]", "kcal/mol", 0.631],
  ["SAGGSAGGSAGGSMSGVFSTETVFLEKTLPDGSRVEALTTIETYLPLPPLPPFKFPSAVSAGGSAGGSAGGS [r4_325_JUSTAS]", "kcal/mol", 0.415],
  ["SAGGSAGGSASYSVTISPEERIEPVVDYKTGERRLVERRRVVVTADPKLSPALKAAILAALSSAGGSAGGSA [r18_438_JUSTAS]", "kcal/mol", 0.144],
  ["SAGGSADEELLEKAKEALKKAEPPKIVVLNLPLPSGKELKVTLDPTTNKFTAEFPDGGSKTFDFPESAGGSA [r15_977_JUSTAS]", "kcal/mol", 0.86]
]}

Now look at this entry.
Report measured folding stability dG unfold; entry is SAGGSAGGSAGGMTLEELKKAIENAKPGETIEIEINGETYRITIIEKDGKLIIKIEKLPPSAGGSAGGSAGG [r7_448_TrROS_Hall]
4.21

----------
# Test Method Notes: folding stability dG unfold from chymotrypsin proteolysis; higher = more stable
Entries are grouped by folding stability dG unfold into these classes: low: < 0.5 kcal/mol; mid: ≥ 0.5 kcal/mol and < 3 kcal/mol; high: ≥ 3 kcal/mol

Use these answered entries as a reference point.
{"columns": ["Sequence", "Class Name"],
 "data": [
  ["SSSLDYVFKDIDPSSPNKLTLSEIKPVPESDKVVNKIVFPTKTILVTFDSAEDAEAHIGLLLKLFGSPPESA [r9_258_TrMRF]", "mid"],
  ["SASAAEEIERALLPLPNIPTAPLATFTLPDAPVEVVSYDPVTGRVLVRLTGTGALFVFDPETGEAELLPSAG [r14_359_TrMRF]", "mid"]
]}

Lab log: SAGGSGMWTPKQVKLLAEPGKSKTITIPGPVSEEEINALLNAGEPVIITLPDGTVLKAEKNTITLESAGGSA [r2_33_JUSTAS] — assign folding stability dG unfold category
low

Lab log: SAGGSASVSYDPTPGPTRRTTTLLETEEVGPNLKRVKTKVTLFPSDGVPTTSTVTELDLVPPPELPSAGGSA [r15_1035_JUSTAS] — assign folding stability dG unfold category
mid

Lab log: SAGGSSVKVVKTEVTEDPATGLTTVTETFENGAKATFTIDPATGTVPGETEYPDKKVKYTGYDPLPPSAGGS [r8_363_JUSTAS] — assign folding stability dG unfold category
mid

Lab log: SAGGMKIKIEVIDPDGKKRVIEIDASTPEEIKAALDALPPGAVVRIVVPSPELREALKEAGVDEVVELSAGG [r13_476_TrROS_Hall] — assign folding stability dG unfold category
mid

Lab log: SMKKIVLIYPESVSPEEAEKIAEEILKKLGLKKGSPVTILPLSEYESNPEMRARIEEAKKKGADIIIEVKSA [r9_1147_JUSTAS] — assign folding stability dG unfold category
mid

Lab log: SAGGSAGGMTFVDLGEDKPVVIEVPPRPETGLYPVVIHPPEKPVFVEVESPEEAIEAAEKLVEGSAGGSAGG [r6_715_TrMRF] — assign folding stability dG unfold category
mid

Lab log: SAGGSAGGSAGGEIPIKIRPYDPKDGEPKDEHPIPFDTPNGNSLDEIAKQLPPDHFEVDISAGGSAGGSAGG [r17_339_TrROS] — assign folding stability dG unfold category
mid

Lab log: SAGFKIKIEPDKNMPPGQKPMTEEELKKIAKSIAKQMEQDPGNPGKEVKIEIPFYFPDGYWYRIEIEKSAGG [r19_132_TrROS] — assign folding stability dG unfold category
mid

----------
# folding stability dG unfold per record follows
# Test Method Notes: folding stability dG unfold from trypsin proteolysis; higher = more stable
Just the number in kcal/mol, nothing appended.

A selection of reference data follows.
{"columns": ["Sequence", "Unit Tag", "Readout Number"],
 "data": [
  ["SGKVKVKVEIPIPFRPPDGKWMMMNIWVEAEVPVTPEDLNNGKPRIRPEALDEAKDKVREWMRDIFGEPISA [r9_629_TrROS]", "kcal/mol", 1.03],
  ["SAGGSAMKEIEINGYKVRIVKIDEKTGKITIYLYPNASEEMKEKVAELLKELGFEIEVEEVSPEELSAGGSA [r15_570_TrROS_Hall]", "kcal/mol", 3.4],
  ["SAGNVIVVVNPETGEVVVVSFDELVRIVAVSSKTLVPEVRDVPRDKVLDFIKEAFPGPVEILEIKPAPVSAG [r5_519_TrMRF]", "kcal/mol", 1.02]
]}

Report measured folding stability dG unfold; entry is SAGMVEITVEVKEDGTVIVTIPATSPEEALEVAEEVARELAKQFGAEHTEFVIEPVPDDTLVLLVPIKKSAG [r5_772_TrMRF]
0.389

Report measured folding stability dG unfold; entry is SAGGSAGGSTPMSVEEIVERIKEEKRKENPNETVEIEFTAELKGGPEGAPEGIYPVKIKVPPGKSAGGSAGG [r6_79_JUSTAS]
0.05

----------
# Test Method Notes: folding stability dG unfold (combined trypsin and chymotrypsin); higher = more stable
Test Readout: folding stability dG unfold (kcal/mol)
Just the number in kcal/mol, nothing appended.

{"columns": ["Sequence", "Readout Number"],
 "data": [
  ["SAGGKKKKTIVIVLEVSEEEAEKIIEALKKELEKKGFKIEKIEVRKVPDKPMVIVTIKLENGEELTFISAGG [r13_421_TrROS_Hall]", 2.44],
  ["SAGGSAGGSAGGKMRLYRFNLKTNKIEEVEAEPGEVIKITFPGKEIVLVVKDGKIELIPSAGGSAGGSAGGS [r10_817_TrROS_Hall]", 0.884],
  ["SAGGSAGGKPIWEFELEFPDGYKIRITYWPGYVRVEIHNPDGRQLEVNVPGKSPEDALDALLDASAGGSAGG [r6_459_TrROS]", 3.88],
  ["SAGGSVRVETEFERLPDGPIVVRVRITLPNGETLEFTAVYYPEPSGIPMFVPEPVPPNAIEGIDIKVSAGGS [r16_95_TrMRF]", 2.11],
  ["SAGGSAMIITFDKKTGKLTIYNKETGKKIEAEITKIEKIPEDKKYVKIKIKNKKTKKEFEFIFKIKSAGGSA [r15_209_TrROS_Hall]", 3.81],
  ["SAGGSAGGSASSSSSIKFLSEEEIKLPDGTPVKVKIYKDPSNNKEYLYLPESKVWLPISKISAGGSAGGSAG [r3_181_JUSTAS]", 1.67]
]}

Now look at this entry.
Report measured folding stability dG unfold; entry is SAGFTIEIENEDGKKITFRFPGWKIEIYPKDGIIMMRYPEENMSIMIKVDPNKIKIQVYDGGKWRWFPISAG [r5_786_TrROS]
3.69

----------
# folding stability dG unfold per record follows
# Test Method Notes: folding stability dG unfold from trypsin proteolysis; higher = more stable
Just the number in kcal/mol, nothing appended.

Report measured folding stability dG unfold; entry is SEFELKIEEEEDPATGVLRVTVTFNTSLEDAKEKLKELLKESGLNAVIKSVEEKKVGPEVTITFEIEIPPSA [r9_164_JUSTAS]
2.71

----------
# Test Method Notes: folding stability dG unfold from chymotrypsin proteolysis; higher = more stable
Test Readout: folding stability dG unfold (kcal/mol)
Just the number in kcal/mol, nothing appended.

A selection of reference data follows.
{"columns": ["Sequence", "folding stability dG unfold [kcal/mol]"],
 "data": [
  ["SMVEIKVEPEKSIIKATLTLKDKTVEEIKQLAKEYFEKLGYKIKVEVKEVKTFEDSVTLKFEIKVPKGLVSA [r9_347_JUSTAS]", 2.27],
  ["SAGGSAVTVVTVELTSPGSTHTITIPASEVEGLSLEEIEARLKALPEVSEITLTRSELPPLNPSLASAGGSA [r2_282_JUSTAS]", 0.752],
  ["SAGGSANLPPGQPKIITITIPLGEEVRNPDGEPMTPEDIADNFQERFGNIEVEKSPNGWLEVTFWLSAGGSA [r15_645_TrROS]", 0.637],
  ["SAGGMPVTLEIVLPNLHDVLGPEFFDALKNITVPNGTPIKKITVKPIGDKTVILIEVDSPEDAKDILGSAGG [r13_269_TrMRF]", 1.66],
  ["SAGGSAGPKVEVELFPVPPFAPGSEFVLLVKTEDGDVILQRFRVKLEGNEPKIEPLGSIVLKPDELSAGGSA [r15_636_TrMRF]", 2.09]
]}

Report measured folding stability dG unfold; entry is SAGMKPNETLPNAIIRIENSKGKVKEFTLPNVVSIEEIDEKNGIITLTLPNNKKITLKVPKNAKITIEGSAG [r5_762_TrMRF]
3.5

Report measured folding stability dG unfold; entry is SAGMSFTVTTVGSPGPTTPRVVIEPPDRVVVISRLPDGSYEVRYYDPSPPVELERRRLAPEEAIAELLSAGG [r19_188_JUSTAS]
0.647
